Target Or System: human Farnesoid X receptor ligand-binding domain/Gal4 DNA binding domain chimera (Homo sapiens (Human), UniProt Q96RI1)
Sequence (Q96RI1 262-486, change not shown): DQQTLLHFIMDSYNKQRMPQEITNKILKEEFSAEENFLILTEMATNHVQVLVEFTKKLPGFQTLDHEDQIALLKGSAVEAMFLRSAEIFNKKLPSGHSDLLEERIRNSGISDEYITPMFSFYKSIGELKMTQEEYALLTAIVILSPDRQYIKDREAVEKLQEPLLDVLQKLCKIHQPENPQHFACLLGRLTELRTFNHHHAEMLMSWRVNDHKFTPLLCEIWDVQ
Sequence (P04386 1-147 partner): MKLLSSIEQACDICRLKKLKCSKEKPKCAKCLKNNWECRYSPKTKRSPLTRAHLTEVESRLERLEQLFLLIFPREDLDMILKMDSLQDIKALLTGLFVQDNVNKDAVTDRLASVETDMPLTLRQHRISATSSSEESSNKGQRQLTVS
Protocol Details: Cell-based assay of FXR activation (FXR-UAS-bla HEK 293T beta-lactamase reporter)
Run Conditions: cellular FXR beta-lactamase reporter assay, FXR-UAS-bla HEK 293T cells, 16 h; pEC50 = -log EC50
Property Measured: EC50 (nM)
Write the number in nM without appending the unit.

- Compound: "O=C(NS(=O)(=O)C1CC1)c1ccc([N+]2([O-])C[C@@H]3C[C@H]2C[C@H]3OCc2c(-c3c(Cl)cccc3Cl)noc2C2CC2)cc1 (stereo partly drawn) [Compound I-234]"
  Result Unit: "nM"
  EC50: 1.58
- Compound: "O=C(O)c1cc(F)c2nc(N3C[C@@H]4C[C@H]3C[C@H]4OC(=O)c3c(-c4c(Cl)cccc4Cl)noc3C3(F)CC3)sc2c1 [Compound I-10]"
  Result Unit: "nM"
  EC50: 25.1
- Compound: "CS(=O)(=O)NC(=O)c1cc(F)c2nc(N3C[C@@H]4C[C@H]3C[C@H]4OC(=O)c3c(-c4c(Cl)cccc4Cl)noc3C3CC3)sc2c1 [Compound I-31]"
  Result Unit: "nM"
  EC50: 158
- Compound: "O=C(O)c1cc(OC(F)(F)F)c2nc(N3C[C@@H]4C[C@H]3C[C@H]4OC(=O)c3c(-c4c(Cl)cccc4Cl)noc3C3CC3)sc2c1 [Compound I-6]"
  Result Unit: "nM"
  EC50: 3.98
- Compound: "Cc1cccc(Cl)c1-c1noc(C2CC2)c1CO[C@@H]1C[C@@H]2C[C@H]1CN2c1ccc(CCC(=O)NS(=O)(=O)C2CC2)cc1F [Compound I-242]"
  Result Unit: "nM"
  EC50: 10
- Compound: "O=C(O)c1cc(C2CCCC2)c2nc(N3C[C@@H]4C[C@H]3C[C@H]4OCc3c(C4CCC5(CC4)CC5)noc3C3CC3)sc2c1 [Compound I-283]"
  Result Unit: "nM"
  EC50: 25.1
- Compound: "O=C(O)c1cc(O[C@@H]2CCOC2)c2nc(N3C[C@@H]4C[C@H]3C[C@H]4OCc3c(-c4c(Cl)cccc4Cl)noc3C3CC3)sc2c1 [Compound I-261]"
  Result Unit: "nM"
  EC50: 0.398
- Compound: "O=C(O)c1cc(F)c2nc(N3C[C@@H]4C[C@H]3C[C@H]4OC(=O)c3c(-c4c(Cl)cccc4Cl)noc3C3CC3)sc2c1 [Compound I-1]"
  Result Unit: "nM"
  EC50: 10
- Compound: "O=C(O)c1cc(C2CCOC2)c2nc(N3C[C@@H]4C[C@H]3C[C@H]4OCc3c(-c4c(Cl)cccc4Cl)noc3C3CC3)sc2c1 (stereo partly drawn) [Compound I-251]"
  Result Unit: "nM"
  EC50: 0.2
- Compound: "Cc1cc(N2C[C@@H]3C[C@H]2C[C@H]3OCc2c(-c3c(Cl)cccc3Cl)noc2C2CC2)ccc1C(=O)O [Compound I-111]"
  Result Unit: "nM"
  EC50: 1.26

Which measured EC50 value corresponds to CS(=O)(=O)CCNC(=O)c1ccc(N2C[C@@H]3C[C@H]2C[C@H]3OCc2c(-c3c(Cl)cccc3Cl)noc2C2CC2)cc1 [Compound I-169] ?
1.58

Now give it for FC(F)(F)Oc1cc(-c2nn[nH]n2)cc2sc(N3C[C@@H]4C[C@H]3C[C@H]4OCc3c(-c4c(Cl)cccc4Cl)noc3C3CC3)nc12 [Compound I-27] too.
2
